Assay: chemical genetic growth profiling, strain panel (AID 1159580);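 further: tested at 20 µM; growth read once vehicle control cultures reached saturation at 30 °C; 1 = growth at the plate median or of vehicle wells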
Details: S. cerevisiae deletion strains, growth OD, locus YMR277W, strain FCP1
Out of some 5,500 compounds screened, about 2,000 (36%) were called active. Not shown: some 18% with an inconclusive outcome. No stated cut-off is given here; in the data, active means normalized growth mostly below about 0.91 (no sharp cut-off); inconclusive means no clear call, values can overlap the other calls; inactive means mostly above about 0.92. This is one part of the list.
Respond only with the outcome that fits, drawn from true (active), false (inactive)

INSERT INTO measurements (compound, category_label) VALUES
  ('CC(=O)c1sc(SCCS(=O)(=O)c2ccc(C)cc2)c2c1CC(C)(C)CC2=O', 'false'),
  ('NC(=Nc1ccc(F)cc1)SCc1c(Cl)cccc1Cl', 'false'),
  ('N#CCC(=O)NNC(=S)Nc1ccc(Cl)c(Cl)c1', 'false'),
  ('Cc1ccc(S(=O)(=O)CCSC2=CC(=O)CC(C)(C)S2)cc1', 'false'),
  ('CC(C)c1ccc(N2C=Nc3ccc(C(C)C)cc3C2)cc1', 'false'),
  ('O=[N+]([O-])/C=C/c1ccc(F)cc1', 'true'),
  ('O=C(NCCSCc1cccc(C(F)(F)F)c1)Nc1cccc(C(F)(F)F)c1', 'false'),
  ('C=CCOc1ccc(/C=C/[N+](=O)[O-])cc1', 'true'),
  ('O=C1CSC(c2cccnc2)N1c1ccc(Cl)cc1Cl (centres undefined)', 'false'),
  ('FC(F)(F)c1cccc(NNC(=S)Nc2ccccc2)c1', 'false');

Input: Look up the recorded call for O=C(c1ccc2ccccc2c1)N1CCN(c2ccnc3cc(Cl)ccc23)CC1 in this test.
Output: false

Input: Just curious, what result did Cc1c2c(=O)[nH]ncc2c(-c2ccccc2)n1-c1ccc([N+](=O)[O-])cc1 get here?
Output: false

Input: In this assay, the call recorded for O=[N+]([O-])/C=C/c1ccsc1 was what?
Output: true

Input: What outcome does the record of this test show for CCOC(=O)C1=C(N)OC2=C(C(=O)CC(C)(C)C2)C1c1ccc(Cl)cc1Cl (centres undefined) ?
Output: false

Input: What was the test verdict on O=c1c(Cl)c(-n2cccn2)cnn1-c1ccc(Cl)cc1Cl ?
Output: false

----------
Assay: chemical genetic growth profiling, strain panel (AID 1159580)
Conditions: S. cerevisiae deletion strains, growth OD, locus YJL134W, strain LCB3, stronger effect = lower value
Hit rate of the full screen: of about 5,500 compounds, about 2,000 (36%) were called active. About 18% were inconclusive and are not listed. This is one part of the list.
ENDPOINT: normalized growth

These recorded examples may help you get a feel for the data.
INSERT INTO assay_data (compound, experimental_result) VALUES
  ('OC[C@@H]1CCCN2CCCC[C@H]12', '0.978 (inactive)'),
  ('C[C@H](N)[C@H](O)c1ccc(O)c(O)c1', '1 (inactive)'),
  ('COC(=O)Oc1ccccc1C(=O)O', '1.01 (inactive)'),
  ('CC(=O)Oc1ccc(Cl)c2cccnc12', '0.0495 (active)'),
  ('CNc1ccccc1C(=O)O', '1 (inactive)');

Input: Data request, read-out normalized growth, for CC(=O)OCC1(C)CCC2(C)CCC3(C)C4=CCc5c(cc(OC(C)=O)c(OC(C)=O)c5C)C4(C)CCC3(C)C2C1 (stereo unspecified)
Output: 1.01 (inactive)

Input: Name the reported normalized growth value associated with the compound COc1cc2c(c(OC)c1OC)-c1ccc(O)c(=O)cc1[C@@H](NC(C)=O)CC2
Output: 0.913 (active)

Input: Please look up its normalized growth: COc1cc2c(c(OC)c1OC)-c1ccc(OC)c(=O)cc1[C@@H](NC(C)=O)CC2
Output: 1.02 (inactive)

Input: Request the reported normalized growth associated with O=C(O)c1cccnc1Nc1cccc(C(F)(F)F)c1
Output: 0.953 (inactive)

Input: What value of normalized growth has been recorded for this entry: COC(=O)[C@]1(C)CC[C@]2(C)CC[C@]3(C)C4=CCc5c(cc(O)c(O)c5C)[C@]4(C)CC[C@@]3(C)C2C1 (stereo partly specified)
Output: 0.991 (inactive)

Input: # query: normalized growth of entry CC1(C)C(O)CC(O)C2(C)C1CC(=O)C1(C)C2CCC2(C)C(C(=O)O)OC(=O)C3OC321 (stereo unspecified)
Output: 1.01 (inactive)

----------
Assay: chemical genetic growth profiling, strain panel (AID 1159580)
Details: S. cerevisiae deletion strains, growth OD, locus YML124C, strain tub3
In all, about 5,500 compounds went through this assay and about 2,000 (36%) were called active. About 18% were inconclusive and are not listed. Cut-off read from the data, not from the text of the source: active = normalized growth mostly below about 0.91 (no sharp cut-off); inconclusive = no clear call, values can overlap the other calls; inactive = mostly above about 0.92. The list shows a part of the results.
Hi! Could you answer with just one of these? active, inactive

INSERT INTO assay_data (molecule, category_label) VALUES
  ('Cc1ccc(/C(=C\CN2CCCC2)c2ccccn2)cc1', 'inactive');

Input: What did the test return for CC(=O)Nc1cc([As](=O)(O)O)ccc1O ?
Output: inactive

Input: Dear all, I need the recorded test outcome for C=CC(C1=CC(=O)C(OC)=CC1=O)c1ccccc1 (centres undefined) , thank you.
Output: inactive

Input: In this assay, the call recorded for O=C(O)CCCCC1CCSS1 (centres undefined) was what?
Output: inactive

Input: Entry C=CC(C1=CC(=O)C(OC)=CC1=O)c1ccc(OC)cc1 (centres undefined) : call = ?
Output: inactive

Input: Write down the call the test reported for this molecule. Item: O=[N+]([O-])c1cc([As](=O)(O)O)ccc1O
Output: active

Input: So what was the verdict on O=[N+]([O-])c1cc(O)c(O)c([N+](=O)[O-])c1 in this test?
Output: inactive

Input: For this molecule, state the assay outcome: C=CC(C1=CC(=O)C(OC)=CC1=O)c1ccc(O)cc1 (centres undefined)
Output: inactive

Input: In this assay, the call recorded for O=[N+]([O-])c1ccc(O)c([N+](=O)[O-])c1 was what?
Output: active

----------
Entries and their measured normalized growth follow.
Assay: chemical genetic growth profiling, strain panel (AID 1159580);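 further: tested at 20 µM; growth read once vehicle control cultures reached saturation at 30 °C; 1 = growth at the plate median or of vehicle wells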
Conditions: S. cerevisiae deletion strains, growth OD, locus YMR263W, strain SAP30, stronger effect = lower value
Out of some 5,500 compounds screened, about 2,000 (36%) were called active. Roughly 18% stayed inconclusive and do not appear here. This is one part of the list.
Give only the figure.

In the examples that follow, each entry is paired with its recorded normalized growth.
INSERT INTO results (molecule, experimental_result) VALUES
  ('CCCCNC(=O)NCCSCc1ccco1', 0.996),
  ('O=C(NCCSCc1ccco1)c1ccc(Cl)cc1', 0.981),
  ('CC(=O)Nc1ccc(S(=O)(=O)Nc2ccc([N+](=O)[O-])cc2)cc1', 1.01);

Now examine the next entry.
Input: Quick one: normalized growth of CSCCC(NC=O)C(=O)NC(C)C(=O)O (configuration not stated) ?
Output: 1.01

----------
Experiment: chemical genetic growth profiling, strain panel (AID 1159580);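 further: tested at 20 µM; growth read once vehicle control cultures reached saturation at 30 °C; 1 = growth at the plate median or of vehicle wells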
Conditions: S. cerevisiae deletion strains, growth OD, locus YER015W, strain faa2
In all, about 5,500 compounds went through this assay and about 2,000 (36%) were called active. Roughly 18% stayed inconclusive and do not appear here. No stated cut-off is given here; in the data, active means normalized growth mostly below about 0.91 (no sharp cut-off); inconclusive means no clear call, values can overlap the other calls; inactive means mostly above about 0.92. This is one part of the list.
Give your call using only these classes: active, inactive

For orientation, consider the following solved cases.
INSERT INTO results (compound, category_label) VALUES
  ('CC(=O)/C(=C\c1ccccc1)CC(=O)O', 'inactive'),
  ('Cc1ccsc1/C=C/C1=NCCCN1C', 'inactive'),
  ('O=C1C=CC2=C3c4cc(O)c(O)cc4CC3(O)COC2=C1O (stereo unspecified)', 'inactive'),
  ('O=C(O[C@@H]1Cc2c(O)cc(O)cc2O[C@@H]1c1cc(O)c(O)c(O)c1-c1c([C@H]2Oc3cc(O)cc(O)c3C[C@H]2O)cc(O)c(O)c1O)c1cc(O)c(O)c(O)c1', 'active');

Input: Record lookup: outcome of this test for CC(=O)c1c(O)c(C)c(O)c2c1OC1=CC(=O)C(C(C)=O)C(=O)C12C (stereo unspecified) ?
Output: active

Input: Can you look up the reported call for CN(C)CCOC(C)(c1ccccc1)c1ccccn1 (stereo unspecified) for me?
Output: inactive

Input: Hi, sorry to bother you, what did the test record for O=C(NC(=O)c1c(F)cccc1F)Nc1ccc(Cl)cc1 ?
Output: inactive

----------
Assay: chemical genetic growth profiling, strain panel (AID 1159580);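 further: tested at 20 µM; growth read once vehicle control cultures reached saturation at 30 °C; 1 = growth at the plate median or of vehicle wells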
Conditions: S. cerevisiae deletion strains, growth OD, locus YLR262C, strain YPT6 (second series), stronger effect = lower value
Out of some 5,500 compounds screened, about 2,000 (36%) were called active. Another 18% or so got no clear call; they are omitted. The list shows a part of the results.
ENDPOINT: normalized growth
Reply with just the number.

Some compounds with recorded normalized growth:
INSERT INTO measurements (compound, endpoint, experimental_result) VALUES
  ('O=[N+]([O-])c1cc(O)c(O)c([N+](=O)[O-])c1', 'normalized growth', 0.996),
  ('CO[C@H]1/C=C/O[C@@]2(C)Oc3c(C)c(O)c4c(O)c(c(/C=N/N5CCN(C)CC5)c(O)c4c3C2=O)NC(=O)/C(C)=C\C=C\C(C)[C@H](O)[C@@H](C)[C@@H](O)[C@@H](C)[C@@H](OC(C)=O)[C@@H]1C (stereo partly drawn)', 'normalized growth', 0.982);

# context switch: different compound, same normalized growth
Input: Need normalized growth of CO[C@H]1/C=C/O[C@@]2(C)Oc3c(C)c(O)c4c(O)c(c5c(nc6cc(C)ccn65)c4c3C2=O)NC(=O)/C(C)=C\C=C\[C@H](C)[C@H](O)[C@@H](C)C(O)[C@@H](C)[C@H](OC(C)=O)[C@@H]1C (stereo partly drawn) , thanks.
Output: 1.09
